- Test system: Plasmodium falciparum
- measurement-notes: Antimalarial activity against chloroquine-,pyrimethamine-resistant Plasmodium falciparum W2 assessed as inhibition of [3H]hypoxanthine incorporation after 96 hrs by microtiter plate scintillation counting
- Assay type: functional, organism-based
// pIC50 lookup, one value per entry
# reply with the number alone; pIC50 is -log10 of concentration in mol/L

Answered examples (2):
{"columns": ["smiles-code", "recorded-measurement"],
 "data": [
  ["CC[C@H]1OC(=O)[C@H](C)[C@@H](O[C@H]2C[C@@](C)(OC)[C@@H](O)[C@H](C)O2)[C@H](C)[C@@H](O[C@@H]2O[C@H](C)C[C@H](N(C)C)[C@H]2O)[C@](C)(O)C[C@@H](C)CN(CCCNC(=O)Nc2c(C)noc2C)[C@H](C)[C@@H](O)[C@]1(C)O", 4.89],
  ["CC[C@H]1OC(=O)[C@H](C)[C@@H](O[C@H]2C[C@@](C)(OC)[C@@H](O)[C@H](C)O2)[C@H](C)[C@@H](O[C@@H]2O[C@H](C)C[C@H](N(C)C)[C@H]2O)[C@](C)(O)C[C@@H](C)CN(CCCNC(=S)Nc2ccc([N+](=O)[O-])cc2OC)[C@H](C)[C@@H](O)[C@]1(C)O", 7.30]
]}

Name the recorded pIC50 for CC[C@H]1OC(=O)[C@H](C)[C@@H](O[C@H]2C[C@@](C)(OC)[C@@H](O)[C@H](C)O2)[C@H](C)[C@@H](O[C@@H]2O[C@H](C)C[C@H](N(C)C)[C@H]2O)[C@](C)(O)C[C@@H](C)CN(CCCNC(=O)Nc2ccc(C(F)(F)F)cc2)[C@H](C)[C@@H](O)[C@]1(C)O .
7.13

Name the recorded pIC50 for CC[C@H]1OC(=O)[C@H](C)[C@@H](O[C@H]2C[C@@](C)(OC)[C@@H](O)[C@H](C)O2)[C@H](C)[C@@H](O[C@@H]2O[C@H](C)C[C@H](N(C)C)[C@H]2O)[C@](C)(O)C[C@@H](C)CN(CCCNC(=O)NCCc2cccs2)[C@H](C)[C@@H](O)[C@]1(C)O .
5.98

Name the recorded pIC50 for CC[C@H]1OC(=O)[C@H](C)[C@@H](O[C@H]2C[C@@](C)(OC)[C@@H](O)[C@H](C)O2)[C@H](C)[C@@H](O[C@@H]2O[C@H](C)C[C@H](N(C)C)[C@H]2O)[C@](C)(O)C[C@@H](C)CN(CCCNC(=S)Nc2ccc(N(C)C)c3ccccc23)[C@H](C)[C@@H](O)[C@]1(C)O .
6.76

Name the recorded pIC50 for CC[C@H]1OC(=O)[C@H](C)[C@@H](O[C@H]2C[C@@](C)(OC)[C@@H](O)[C@H](C)O2)[C@H](C)[C@@H](O[C@@H]2O[C@H](C)C[C@H](N(C)C)[C@H]2O)[C@](C)(O)C[C@@H](C)CN(CCCNC(=O)NC2CCCCC2)[C@H](C)[C@@H](O)[C@]1(C)O .
6.73

Name the recorded pIC50 for CC[C@H]1OC(=O)[C@H](C)[C@@H](O[C@H]2C[C@@](C)(OC)[C@@H](O)[C@H](C)O2)[C@H](C)[C@@H](O[C@@H]2O[C@H](C)C[C@H](N(C)C)[C@H]2O)[C@](C)(O)C[C@@H](C)CN(CCCNC(=S)NC2CC2)[C@H](C)[C@@H](O)[C@]1(C)O .
6.17
